Task for the reader: assign each of the following compounds its reported normalized growth.
- experiment: chemical genetic growth profiling, strain panel (AID 1159580);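 note: tested at 20 µM; growth read once vehicle control cultures reached saturation at 30 °C; 1 = growth at the plate median or of vehicle wells; lower values mean less growth of the strain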
- measurementContext: S. cerevisiae deletion strains, growth OD, locus YIR030C, strain dcg1, stronger effect = lower value
The whole screen tested about 5,500 compounds, of which about 2,000 (36%) were called active. Roughly 18% stayed inconclusive and do not appear here. The list shows a part of the results.
Answers are plain numbers.

CC(=O)Oc1ccc2c(c1)CCC1C2CC[C@]2(C)C(=O)CCC12 (stereo not given in full): 1.02
COC(=O)[C@@H]1OC(=O)C2OC23[C@@]1(C)CCC1[C@]2(C)C(C[C@@H](O)[C@]13C)C(C)(C)[C@H](OC(C)=O)C[C@@H]2OC(C)=O (stereo not given in full): 0.992
OC[C@H]1O[C@@H](n2cnc3c(NCc4ccco4)ncnc32)[C@H](O)[C@@H]1O: 1.01
Fc1ccc([C@@H]2CCNC[C@H]2COc2ccc3c(c2)OCO3)cc1: 1
COc1ccc(-c2cc(=O)c3c(OC)cc(OC)cc3o2)cc1: 0.993

I'm hoping you can list normalized growth for every compound here, please.
1. CC12CCC3C(=CCc4cc(O)ccc43)C1CCC2=O (stereo not given)
2. C[C@@H]1CC[C@H]2C(C)(C)C3CC12CC[C@@]3(C)O (stereo not given in full)
3. CC(=O)O[C@]1(C)CC[C@@]23CC1C(C)(C)[C@@H]2CC[C@H]3C

1. 0.993
2. 0.987
3. 0.997

---

- experiment: chemical genetic growth profiling, strain panel (AID 1159580);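 note: tested at 20 µM; growth read once vehicle control cultures reached saturation at 30 °C; 1 = growth at the plate median or of vehicle wells; lower values mean less growth of the strain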
- measurementContext: S. cerevisiae deletion strains, growth OD, locus YPL031C, strain PHO85
Hit rate of the full screen: of about 5,500 compounds, about 2,000 (36%) were called active. Not shown: some 18% with an inconclusive outcome. Rule as the data show it: active = normalized growth mostly below about 0.91 (no sharp cut-off); inconclusive = no clear call, values can overlap the other calls; inactive = mostly above about 0.92. Some of the results follow.
API: response.call in yes (1) for active, no (0) for inactive

Consider the following illustrative entries.
CN(C)c1ccc(/C=C/c2ccc3ccccc3[n+]2C)cc1: no (0)
Brc1ccc(-c2csc(-c3cccnc3)n2)cc1: yes (1)
Clc1ccccc1-c1csc(-c2ccncc2)n1: no (0)
COc1ccc(-c2csc(-c3cccnc3)n2)cc1: no (0)
Clc1ccccc1-c1csc(-c2cccnc2)n1: yes (1)

Each molecule tested received a call. Report the one for CCOC(=O)c1sc(S(C)=NC(=O)Nc2ccc(Cl)cc2)c2c1CCC=C2 (stereo unspecified) .
no (0)

---

- experiment: chemical genetic growth profiling, strain panel (AID 1159580);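 note: tested at 20 µM; growth read once vehicle control cultures reached saturation at 30 °C; 1 = growth at the plate median or of vehicle wells; lower values mean less growth of the strain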
- measurementContext: S. cerevisiae deletion strains, growth OD, locus YOR080W, strain dia2
Among all 5,500 compounds or so, about 2,000 (36%) were called active. Inconclusive results (about 18%) are left out. Rule as the data show it: active = normalized growth mostly below about 0.91 (no sharp cut-off); inconclusive = no clear call, values can overlap the other calls; inactive = mostly above about 0.92. This is one part of the list.
Your reply should match one of these outcome classes. class 1 for active, class 0 for inactive

CC(=O)Oc1ccc2c(c1)CCC1C2CC[C@]2(C)C(=O)CCC12 (stereo not given in full): class 0
Clc1ccc(CSC(Cn2ccnc2)c2ccc(Cl)cc2Cl)cc1 (stereo not given): class 1
Clc1ccc(COC(Cn2ccnc2)c2ccc(Cl)cc2Cl)cc1 (stereo not given): class 1
COc1ccc2nc(S(=O)Cc3ncc(C)c(OC)c3C)[nH]c2c1 (stereo not given): class 0
C=C1C(=O)[C@]23[C@H](O)[C@H]1CC[C@H]2[C@@]12CO[C@]3(O)[C@H](O)[C@@H]1C(C)(C)CC[C@@H]2O: class 0
COc1cc2c(cc1OC)C1(O)C(=O)c3ccc(O)c(C(=O)O)c3OC1CO2 (stereo not given): class 0
C[C@]12CCC3c4ccc(O)cc4CCC3C1CCC2=O (stereo not given in full): class 0
C[C@]12CCC3c4ccc(OC(=O)c5ccccc5)cc4CCC3C1CCC2=O (stereo not given in full): class 0

What did this assay record as the result for CCCCCCCCCCCCCC(=O)OC1C(C)C2(O)C(C=C(CO)CC3(O)C(=O)C(C)=CC32)C2C(C)(C)C12OC(C)=O (stereo not given) ?
class 0

Status in this test for CC(=O)O[C@H]1C[C@@]2(C)[C@@H](C[C@@H](O)C3[C@]2(C)CC[C@H]2[C@H](C)[C@H](O)CC[C@]32C)/C1=C(/CCC=C(C)C)C(=O)O (stereo not given in full) ?
class 0

Hi, do you know how NC1(C(=O)O)CCCC1 came out in this test?
class 0

What is the recorded call for this molecule in the test? CC(C)c1nc(N(C)S(C)(=O)=O)nc(-c2ccc(F)cc2)c1/C=C/[C@@H](O)C[C@@H](O)CC(=O)O
class 0

Query: recorded result category for COc1ccc2c(c1)OCC(Cc1ccc(OC)c(OC(C)=O)c1)C2=O (stereo not given) in this test
class 0

// return assay outcome for Clc1ccc(COC(Cn2ccnc2)c2ccc(Cl)cc2Cl)c(Cl)c1 (stereo not given)
class 1

// return assay outcome for COc1ccnc(CS(=O)c2nc3ccc(OC(F)F)cc3[nH]2)c1OC (stereo not given)
class 0

Entry COc1ccc2c(c1)OCC(Cc1ccc(OC)c(OC)c1)C2=O (stereo not given) : call = ?
class 0

What was the test verdict on Clc1ccc(CO/N=C(/Cn2ccnc2)c2ccc(Cl)cc2Cl)c(Cl)c1 ?
class 1

Test call for this molecule, please: CCC(C)C(=O)c1c(O)c(C)c2oc3c(C)c(O)c(C(=O)C(C)CC)c(O)c3c2c1O (stereo not given)
class 0

Outcome? O=C(O)[C@@H](S)[C@@H](S)C(=O)O
class 0

Which outcome was assigned to C[C@H]1C[C@@H](O)[C@]2(O)[C@@]13CC(=O)OC[C@@]2(C)[C@](C)(O)C(=O)C3 in this test?
class 0
